Target: UniProt P21554
Test: Agonist activity at human CB1 receptor expressed in CHO cell membranes assessed as increase in [35S]GTPgammaS binding incubated for 30 mins by liquid scintillation spectrometry analysis
Type: functional, CHO-K1, Cell membrane
pEC50: −log10 of the molar value.
EXPERIMENTAL_ENDPOINT: pEC50

INSERT INTO assay_data (compound, number) VALUES
  ('O=[N+]([O-])CC(c1ccccc1)c1c(-c2ccsc2)[nH]c2ccccc12 (stereo unspecified)', 6.89);

----------
Target: Cannabinoid receptor 1 (Homo sapiens, UniProt P21554)
Sequence (P21554 whole entry): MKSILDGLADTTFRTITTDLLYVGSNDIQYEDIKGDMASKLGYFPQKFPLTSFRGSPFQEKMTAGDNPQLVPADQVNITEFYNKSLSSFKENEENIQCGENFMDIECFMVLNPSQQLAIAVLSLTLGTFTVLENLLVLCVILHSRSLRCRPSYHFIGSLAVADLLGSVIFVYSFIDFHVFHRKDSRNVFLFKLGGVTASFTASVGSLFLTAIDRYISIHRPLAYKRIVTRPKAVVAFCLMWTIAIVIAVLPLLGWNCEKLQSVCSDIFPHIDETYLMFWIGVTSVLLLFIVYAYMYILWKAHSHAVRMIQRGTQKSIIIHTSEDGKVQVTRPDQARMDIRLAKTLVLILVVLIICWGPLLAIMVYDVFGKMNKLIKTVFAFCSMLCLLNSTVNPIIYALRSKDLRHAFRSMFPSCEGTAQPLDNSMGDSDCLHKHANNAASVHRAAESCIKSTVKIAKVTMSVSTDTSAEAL
Experiment: Positive allosteric modulation of human CB1 receptor expressed in CHO-K1 cells assessed as inhibition of forskolin-induced cAMP production by measuring maximum efficacy incubated for 30 mins in presence of forskolin by HitHunter chemiluminescence based assay relative to control
Type: functional, cell-based
Conditions: filed as positive allosteric modulator
EXPERIMENTAL_ENDPOINT: Emax (%)

INSERT INTO measurements (molecule, experimental_endpoint, unit_abbreviation, number) VALUES
  ('CC(C)[Si](C(C)C)(C(C)C)n1ccc(-c2[nH]c3ccccc3c2C(C[N+](=O)[O-])c2ccccc2)c1 (centres undefined)', 'Emax', '%', 120),
  ('O=[N+]([O-])CC(c1ccccc1)c1c(-c2nccs2)[nH]c2ccccc12 (centres undefined)', 'Emax', '%', 72),
  ('O=[N+]([O-])CC(c1ccccc1)c1c(-c2cncs2)[nH]c2ccccc12 (centres undefined)', 'Emax', '%', 100),
  ('O=[N+]([O-])CC(c1ccccc1)c1c(-c2ccc[nH]2)[nH]c2ccccc12 (centres undefined)', 'Emax', '%', 110),
  ('O=[N+]([O-])CC(c1ccccc1)c1c(-c2ccoc2)[nH]c2ccccc12 (centres undefined)', 'Emax', '%', 120),
  ('O=[N+]([O-])CC(c1ccccc1)c1c(-c2cn[nH]c2)[nH]c2ccccc12 (centres undefined)', 'Emax', '%', 110),
  ('O=[N+]([O-])CC(c1ccccc1)c1c(-c2ccn[nH]2)[nH]c2ccccc12 (stereo in doubt; 15h)', 'Emax', '%', 120),
  ('O=[N+]([O-])CC(c1ccccc1)c1c(-c2cc3ccccc3s2)[nH]c2ccccc12 (centres undefined)', 'Emax', '%', 130),
  ('O=[N+]([O-])CC(c1ccccc1)c1c(-c2ccsc2)[nH]c2ccccc12 (centres undefined)', 'Emax', '%', 98);

The values you see were collected from ChEMBL document CHEMBL5053527.
